This collection of values is drawn from patent US20210269480A1.

target desc: T1, human Nectin-4 (human, UniProt Q96NY8 32-349)
T1 construct: a Gly32-Ser349 FLAG construct is described only under the SPR assay; also called PVRL4
T1 sequence (looked up): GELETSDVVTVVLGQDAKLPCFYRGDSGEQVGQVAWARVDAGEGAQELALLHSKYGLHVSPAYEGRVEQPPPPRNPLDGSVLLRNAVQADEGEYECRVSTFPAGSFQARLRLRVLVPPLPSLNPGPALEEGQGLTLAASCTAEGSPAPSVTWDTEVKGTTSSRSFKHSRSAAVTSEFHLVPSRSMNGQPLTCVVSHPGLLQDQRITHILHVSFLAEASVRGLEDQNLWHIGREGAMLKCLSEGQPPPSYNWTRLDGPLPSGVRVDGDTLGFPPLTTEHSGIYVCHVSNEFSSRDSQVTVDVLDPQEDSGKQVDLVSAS
procedure summary: FP direct binding, fluorescent peptide
pKi: −log10 of the molar value. *1 amine or outer side, *2 acyl side, *3 side chain or, on linkers, in order; H or OH if unused. Bridges are numbered along the chain shown (N, C = ends). Where no end group is shown, it is not given here. [ ]: non-standard residue; d: D form. TATA = O=C(CC[*:1])N1CN(C(=O)CC[*:2])CN(C(=O)CC[*:3])C1; hArg = N=C(N)NCCCC[C@H](N)C(=O)O
observation type: pKi

ACVTTSYDCWVTLGHCSRF (linker 2-9-16 via TATA; not fully specified, Direct FP used peptides with a fluorescent tag; also called 80-11-08-T01) [BCY3406] ... 7.52
QKWCAPLSDYWCNRICA (linker 4-12-16 via TATA; not fully specified, also called 80-10-13-T01) [BCY3400] ... 7.14
ACVTTSYDCFLHLLGCA (linker 2-9-16 via TATA; not fully specified, Direct FP used peptides with a fluorescent tag; also called 80-11-00) [BCY471] ... 6.05
ACVTTSYDCWVRLGQCA (linker 2-9-16 via TATA; not fully specified, Direct FP used peptides with a fluorescent tag; also called 80-11-01) [BCY472] ... 6.30

A: ACPFGCMKNWSWPIWCA (linker 2-6-16 via TATA; not fully specified (N-terminus), also called FI-A-(SQ ID NO: 1)-A) [80-09-02-N006]
B: VDWCAPLDDYWCDRICA (linker 4-12-16 via TATA; not fully specified, Direct FP used peptides with a fluorescent tag; also called 80-10-12-T01) [BCY462]
Exercise: Choose between A and B : whose measured pKi value is numerically larger? Label of pick, please.
Key: A
(A: 8.30, B: 6.57)

P: carboxyfluorescein-CPF[dD]CM[hArg]NWSTPIWC (linker 1-5-15 via TATA) [BCY8208]
Q: ACWPLDSYWCARICA (linker 2-10-14 via TATA; not fully specified, Direct FP used peptides with a fluorescent tag; also called 80-10-00) [BCY488]
Exercise: // which entry reports the smaller pKi, P or Q ? Label of pick, please.
Key: P
